study conditions: rabbit, 2 h
assay metric: The cumulative amount of test compounds (mg)

Sample answers from the record:
- molecule: "Cl.O=C(Oc1ccccc1C(=O)OCC1CCCN1)c1ccccc1O (stereo not drawn)"
  result units: "mg"
  The cumulative amount of test compounds: 0.68
- molecule: "CCN(CC)CCOC(=O)c1ccccc1OC(=O)c1ccccc1OC(C)=O.Cl"
  result units: "mg"
  The cumulative amount of test compounds: 0.97
- molecule: "CCN(CC)CCOC(=O)c1cc(-c2ccc(F)cc2F)ccc1OC(C)=O.Cl"
  result units: "mg"
  The cumulative amount of test compounds: 1.07

I = CCN(CC)CCOC(=O)c1ccccc1OC(=O)c1ccccc1O.Cl
II = O=C(O)c1cc(-c2ccc(F)cc2F)ccc1O [Compound-12, reference compound]
Task: Between the entries labeled I and II , whose measured The cumulative amount of test compounds is lower? When you have decided, please share the label of that item.
Result: II
(II: 0.001 mg, I: 0.87 mg)

* * *

study conditions: rabbit, 2 h
assay metric: The cumulative amount of test compounds (mg)

- compound: "Cl.O=C(OCC1CCCN1)c1cc(-c2ccc(F)cc2F)ccc1O (stereo not shown)"
  result units: "mg"
  The cumulative amount of test compounds: 0.99
- compound: "CC(=O)Oc1ccccc1C(=O)O"
  result units: "mg"
  The cumulative amount of test compounds: 0.001
- compound: "CC(=O)Oc1ccc(-c2ccc(F)cc2F)cc1C(=O)OCC1CCCN1.Cl (stereo not shown)"
  result units: "mg"
  The cumulative amount of test compounds: 0.98
- compound: "CC(=O)Oc1ccccc1C(=O)Oc1ccccc1C(=O)O [Compound-15, 2-(2-acetoxybenzoyl)oxybenzoic acid, reference compound]"
  result units: "mg"
  The cumulative amount of test compounds: 0.000
